Measured viability, T/C of individual entries
# Tested on: 233499-124-R-J3-PDC complex spheroid growth
# Test Details: Anticancer human tumor 233499-124-R-J3-PDC patient-derived colon adenocarcinoma cell line growth inhibition [AhR]
# Measurement Context: second compound 1 µM; first compound 0.003 µM; stronger effect = lower value
Your answer should be a plain number; it is taken to be in %.

Below: 2 molecules and their reported viability, T/C.
| Molecule | Reported Endpoint | Endpoint Unit | Test Result |
| --- | --- | --- | --- |
| CCc1c2c(nc3ccc(O)cc13)-c1cc3c(c(=O)n1C2)COC(=O)[C@]3(O)CC + CC(CO)NC(=O)c1cc(-c2ccc(Cl)cc2)nn(-c2cnn(C)c2)c1=O | viability, T/C | % | 94.4 |
| CCc1c2c(nc3ccc(O)cc13)-c1cc3c(c(=O)n1C2)COC(=O)[C@]3(O)CC + Cc1ccccc1N=Nc1ccc(NC(=O)c2ccnn2C)c(C)c1 | viability, T/C | % | 113 |

Consider now this further molecule.
Query: viability, T/C; subject: CC(C)CC(NC(=O)C(Cc1ccccc1)NC(=O)c1cnccn1)B(O)O (stereo not drawn) + Cc1ccccc1N=Nc1ccc(NC(=O)c2ccnn2C)c(C)c1
110

====

# Test system: 233499-124-R-J3-PDC complex spheroid growth
# Test Details: Anticancer human tumor 233499-124-R-J3-PDC cell line growth inhibition [AhR];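 further: spheroids exposed to agents for seven days before reading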
# Measurement Context: second compound 0.1 µM; first compound 0.0316 µM; stronger effect = lower value
Reported Endpoint: viability, T/C (%)
Response body: numeric value in %, unit text excluded.

Reference set (2 entries):
| Compound | viability, T/C [%] |
| --- | --- |
| CC1COCCN1c1cc(-c2ccnn2C)c2ccnc(-c3ccn[nH]3)c2n1 (stereo unspecified) + Cc1cncc(-c2nc(NCCc3c[nH]c4ccccc34)c3ncn(C(C)C)c3n2)c1 | 102 |
| CC1COCCN1c1cc(C2(S(C)(=N)=O)CC2)nc(-c2ccnc3[nH]ccc23)n1 (stereo unspecified) + CC(CO)NC(=O)c1cc(-c2ccc(Cl)cc2)nn(-c2cnn(C)c2)c1=O | 101 |

Bench note: what viability, T/C did CC(C)c1c(-c2ccccc2)nc2c(C#N)c[nH]n2c1=O + Cc1cncc(-c2nc(NCCc3c[nH]c4ccccc34)c3ncn(C(C)C)c3n2)c1 show?
88.8

Try this compound next: COc1cc(C2c3cc4c(cc3C(OC3OC5COC(C)OC5C(O)C3O)C3COC(=O)C23)OCO4)cc(OC)c1O (stereo unspecified) + Cc1cncc(-c2nc(NCCc3c[nH]c4ccccc34)c3ncn(C(C)C)c3n2)c1
92.6

Subsequent entry: Nc1ccn(C2OC(CO)C(O)C2(F)F)c(=O)n1 (stereo unspecified) + Cc1cncc(-c2nc(NCCc3c[nH]c4ccccc34)c3ncn(C(C)C)c3n2)c1
95.4

Also need Nc1ncn(C2CC(O)C(CO)O2)c(=O)n1 (stereo unspecified) + Cc1ccccc1N=Nc1ccc(NC(=O)c2ccnn2C)c(C)c1 , thanks.
91.7

====

# System: 233499-124-R-J3-PDC complex spheroid growth
# Test Details: Anticancer human tumor 233499-124-R-J3-PDC cell line growth inhibition [AhR];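 further: spheroids exposed to agents for seven days before reading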
# Measurement Context: second compound 3.16 µM; first compound 0.3 µM; stronger effect = lower value
# Excerpt: Multicellular complex tumor spheroid response to aryl hydrocarbon receptor antagonists in combination with a variety of drugs and investigational agents in selected tumor cell lines […] Compounds. […] If the clinical Cmax for an agent had not been determined, the highest concentration tested was 10 microM (Table 1). […]
Reported Endpoint: viability, T/C (%)
The response must be a number in % with no trailing unit.

| Compound | Test Result |
| --- | --- |
| CCc1c2c(nc3ccc(O)cc13)-c1cc3c(c(=O)n1C2)COC(=O)[C@]3(O)CC + Cc1ccccc1N=Nc1ccc(NC(=O)c2ccnn2C)c(C)c1 | 73.4 |
| CCN(c1cc(-c2ccc(CN3CCOCC3)cc2)cc(C(=O)NCc2c(C)cc(C)[nH]c2=O)c1C)C1CCOCC1 + Cc1cncc(-c2nc(NCCc3c[nH]c4ccccc34)c3ncn(C(C)C)c3n2)c1 | 89.5 |
| CCc1c2c(nc3ccc(O)cc13)-c1cc3c(c(=O)n1C2)COC(=O)[C@]3(O)CC + CC(CO)NC(=O)c1cc(-c2ccc(Cl)cc2)nn(-c2cnn(C)c2)c1=O | 48.6 |

Can you look up the measured viability, T/C of CC(C)CC(NC(=O)C(Cc1ccccc1)NC(=O)c1cnccn1)B(O)O (stereo not given) + CC(CO)NC(=O)c1cc(-c2ccc(Cl)cc2)nn(-c2cnn(C)c2)c1=O for me?
0.12

====

# Test system: 233499-124-R-J3-PDC complex spheroid growth
# Test Details: Anticancer human tumor 233499-124-R-J3-PDC cell line growth inhibition [AhR];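 further: spheroids exposed to agents for seven days before reading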
# Measurement Context: second compound 3.16 µM; first compound 0.0949 µM; stronger effect = lower value
Reported Endpoint: viability, T/C

Please review the following examples before continuing.
| Compound | Test Result |
| --- | --- |
| CCc1c2c(nc3ccc(O)cc13)-c1cc3c(c(=O)n1C2)COC(=O)[C@]3(O)CC + CC(CO)NC(=O)c1cc(-c2ccc(Cl)cc2)nn(-c2cnn(C)c2)c1=O | 72.8% |
| O=C(C=Cn1cnc(-c2cc(C(F)(F)F)cc(C(F)(F)F)c2)n1)NNc1cnccn1 + Cc1ccccc1N=Nc1ccc(NC(=O)c2ccnn2C)c(C)c1 | 92.8% |

Param readout = viability, T/C; param system = 233499-124-R-J3-PDC complex spheroid growth; param query = Nc1ncn(C2CC(O)C(CO)S2)c(=O)n1 (stereo not drawn) + Cc1ccccc1N=Nc1ccc(NC(=O)c2ccnn2C)c(C)c1 ; response: value
109%

====

# Tested on: 233499-124-R-J3-PDC complex spheroid growth
# Test Details: Anticancer human tumor 233499-124-R-J3-PDC cell line growth inhibition [AhR];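 further: spheroids exposed to agents for seven days before reading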
# Measurement Context: second compound 0.1 µM; first compound 0.000316 µM; stronger effect = lower value
Entries and their measured viability, T/C follow.
Express the result in % but write the number alone.

Example compounds with recorded viability, T/C:
| Compound | Measurement Target | Endpoint Unit | viability, T/C |
| --- | --- | --- | --- |
| CC[C@@]1(O)C(=O)OCc2c1cc1n(c2=O)Cc2cc3c(CN(C)C)c(O)ccc3nc2-1 + Cc1ccccc1N=Nc1ccc(NC(=O)c2ccnn2C)c(C)c1 | 233499-124-R-J3-PDC complex spheroid growth | % | 88.5 |
| Cn1ncnc1C1c2n[nH]c(=O)c3cc(F)cc(c23)NC1c1ccc(F)cc1 (stereo unspecified) + CC(CO)NC(=O)c1cc(-c2ccc(Cl)cc2)nn(-c2cnn(C)c2)c1=O | 233499-124-R-J3-PDC complex spheroid growth | % | 97.1 |
| Cn1ncnc1C1c2n[nH]c(=O)c3cc(F)cc(c23)NC1c1ccc(F)cc1 (stereo unspecified) + Cc1ccccc1N=Nc1ccc(NC(=O)c2ccnn2C)c(C)c1 | 233499-124-R-J3-PDC complex spheroid growth | % | 104 |

Return reported viability, T/C; argument: CC[C@@]1(O)C(=O)OCc2c1cc1n(c2=O)Cc2cc3c(CN(C)C)c(O)ccc3nc2-1 + CC(CO)NC(=O)c1cc(-c2ccc(Cl)cc2)nn(-c2cnn(C)c2)c1=O
99.5

Also, CC[C@@]1(O)C(=O)OCc2c1cc1n(c2=O)Cc2cc3c(CN(C)C)c(O)ccc3nc2-1 + Cc1cncc(-c2nc(NCCc3c[nH]c4ccccc34)c3ncn(C(C)C)c3n2)c1 please.
101

Also need Cn1ncnc1C1c2n[nH]c(=O)c3cc(F)cc(c23)NC1c1ccc(F)cc1 (stereo unspecified) + Cc1cncc(-c2nc(NCCc3c[nH]c4ccccc34)c3ncn(C(C)C)c3n2)c1 , thanks.
93.4

====

Entries and their viability, T/C values follow.
# System: 233499-124-R-J3-PDC complex spheroid growth
# Test Details: Anticancer human tumor 233499-124-R-J3-PDC cell line growth inhibition [AhR];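 further: spheroids exposed to agents for seven days before reading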
# Measurement Context: second compound 3.16 µM; first compound 0.1 µM; stronger effect = lower value
Kindly provide the numeric value in % only, without the unit symbol.

For orientation, consider the following solved cases.
| Molecule | Endpoint Unit | viability, T/C |
| --- | --- | --- |
| COc1cccc2c1C(=O)c1c(O)c3c(c(O)c1C2=O)CC(O)(C(=O)CO)CC3OC1CC(N)C(O)C(C)O1 (stereo not drawn) + Cc1ccccc1N=Nc1ccc(NC(=O)c2ccnn2C)c(C)c1 | % | 92.1 |
| Cn1ncnc1C1c2n[nH]c(=O)c3cc(F)cc(c23)NC1c1ccc(F)cc1 (stereo not drawn) + Cc1cncc(-c2nc(NCCc3c[nH]c4ccccc34)c3ncn(C(C)C)c3n2)c1 | % | 71.3 |
| CC1COCCN1c1cc(-c2ccnn2C)c2ccnc(-c3ccn[nH]3)c2n1 (stereo not drawn) + Cc1cncc(-c2nc(NCCc3c[nH]c4ccccc34)c3ncn(C(C)C)c3n2)c1 | % | 63.8 |

// returns reported viability, T/C for input CC1COCCN1c1cc(-c2ccnn2C)c2ccnc(-c3ccn[nH]3)c2n1 (stereo not drawn) + CC(CO)NC(=O)c1cc(-c2ccc(Cl)cc2)nn(-c2cnn(C)c2)c1=O
85.6

Okay, and COc1cccc2c1C(=O)c1c(O)c3c(c(O)c1C2=O)CC(O)(C(=O)CO)CC3OC1CC(N)C(O)C(C)O1 (stereo not drawn) + CC(CO)NC(=O)c1cc(-c2ccc(Cl)cc2)nn(-c2cnn(C)c2)c1=O ?
99.2
